# measuredOn: T1, IHF from Haemophilus influenzae (Hi) (Haemophilus influenzae)
# T1 chain: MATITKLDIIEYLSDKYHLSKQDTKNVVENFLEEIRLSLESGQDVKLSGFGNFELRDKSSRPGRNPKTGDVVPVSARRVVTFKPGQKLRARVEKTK
# protocolNotes: ELISA
For each record, write down the corresponding OD.
// units = OD; emit number, no label

q: For the binder shown here, TRL1087 (antibody, V domains shown) VH: QVQLLESGPGLVRPSDTLSLTCTFSADLSTNAYWTWIRQPPGKGLEWIGYMSHSGGRDYNPSFNRRVTISVDTSKNQVFLRLTSVTSADTAVYFCVREVGSYYDYWGQGILVTVSS VL: DIEMTQSPSSLSASVGDRITITCRASQGISTWLAWYQQKPGKAPKSLIFSTSSLHSGVPSKFSGSGSGTDFTLTITNLQPEDFATYYCQQKWETPYSFGQGTKLDMIR , give the reported OD.
a: 0.06

q: For the binder shown here, TRL1230 (antibody, V domains shown) VH: QVQLVQSGGGLVKPGGSLRLSCGASGFNLSSYSMNWVRQAPGKGLEWVSSISSRSSYIYYADSVQGRFTISRDNAKNSLYLQMNSLRAEDTAIYYCARVSPSTYYYYGMDVWGQGTTVTVSS VL: DIVLTQPSSVSVSPGQTARITCSGDELPKQYAYWYQQKPGQAPVLVIYKDNERPSGIPERFSGSSSGTTVTLTISGVQAEDEADYYCQSADSSGTYVVFGGGTKLTVL , give the reported OD.
a: 0.06

Taken from patent US20220259294A1.
